Overview of reported protection from staurosporine, viability EMAX, MCF10A across a group of binders:
- subject-of-test: native human MET on living human cells (human, UniProt P08581 25-1390)
- Sequence (P08581 25-1390): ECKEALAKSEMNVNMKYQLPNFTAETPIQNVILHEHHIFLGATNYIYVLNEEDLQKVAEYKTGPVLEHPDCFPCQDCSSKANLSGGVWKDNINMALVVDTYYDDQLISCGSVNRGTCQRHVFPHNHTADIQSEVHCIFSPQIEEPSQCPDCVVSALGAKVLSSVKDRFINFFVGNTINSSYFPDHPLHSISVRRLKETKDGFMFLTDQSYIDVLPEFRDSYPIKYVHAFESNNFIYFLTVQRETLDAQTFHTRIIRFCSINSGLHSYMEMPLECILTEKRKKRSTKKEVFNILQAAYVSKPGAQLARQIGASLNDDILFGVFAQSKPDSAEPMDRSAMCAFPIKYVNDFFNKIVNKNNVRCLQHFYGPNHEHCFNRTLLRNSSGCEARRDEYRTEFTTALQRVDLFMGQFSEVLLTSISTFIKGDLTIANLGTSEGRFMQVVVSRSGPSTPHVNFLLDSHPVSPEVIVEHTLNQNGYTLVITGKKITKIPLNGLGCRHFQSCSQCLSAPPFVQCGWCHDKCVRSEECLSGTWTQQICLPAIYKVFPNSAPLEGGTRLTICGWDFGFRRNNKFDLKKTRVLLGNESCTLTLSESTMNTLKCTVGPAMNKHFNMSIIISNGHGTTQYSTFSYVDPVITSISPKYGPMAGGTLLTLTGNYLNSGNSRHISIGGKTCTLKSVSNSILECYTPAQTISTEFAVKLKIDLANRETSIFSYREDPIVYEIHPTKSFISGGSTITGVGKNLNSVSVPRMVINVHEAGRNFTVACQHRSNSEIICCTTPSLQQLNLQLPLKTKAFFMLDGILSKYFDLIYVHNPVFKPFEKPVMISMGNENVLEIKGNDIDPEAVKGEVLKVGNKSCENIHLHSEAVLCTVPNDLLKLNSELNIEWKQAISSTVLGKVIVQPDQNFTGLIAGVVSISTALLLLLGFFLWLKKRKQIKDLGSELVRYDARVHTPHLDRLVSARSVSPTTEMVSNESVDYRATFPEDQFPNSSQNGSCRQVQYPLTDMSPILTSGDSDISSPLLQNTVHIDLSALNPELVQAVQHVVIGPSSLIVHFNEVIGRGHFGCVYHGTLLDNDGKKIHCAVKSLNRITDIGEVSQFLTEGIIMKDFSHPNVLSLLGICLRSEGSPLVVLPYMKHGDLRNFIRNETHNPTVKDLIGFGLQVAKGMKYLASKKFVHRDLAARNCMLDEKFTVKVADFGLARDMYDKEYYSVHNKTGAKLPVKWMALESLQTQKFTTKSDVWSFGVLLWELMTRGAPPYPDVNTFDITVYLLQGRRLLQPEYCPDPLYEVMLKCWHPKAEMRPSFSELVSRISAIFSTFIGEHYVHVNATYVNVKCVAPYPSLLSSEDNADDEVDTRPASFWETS
- measurement-protocol: cell-based or functional assay
Answer with a number only, understood to be in %.

Recorded protection from staurosporine, viability EMAX, MCF10A, per entry:
chimeric llama-human IgG1 mAb 74C8 (antibody, V domains shown) VH: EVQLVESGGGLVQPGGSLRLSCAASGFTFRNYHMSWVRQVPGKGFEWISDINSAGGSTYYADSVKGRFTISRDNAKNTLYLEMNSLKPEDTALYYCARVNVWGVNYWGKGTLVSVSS VL: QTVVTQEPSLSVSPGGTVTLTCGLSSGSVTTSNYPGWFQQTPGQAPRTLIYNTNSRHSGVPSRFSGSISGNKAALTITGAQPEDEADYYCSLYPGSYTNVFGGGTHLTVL = 41.7
chimeric llama-human IgG1 mAb 71G3 (antibody, V domains shown) VH: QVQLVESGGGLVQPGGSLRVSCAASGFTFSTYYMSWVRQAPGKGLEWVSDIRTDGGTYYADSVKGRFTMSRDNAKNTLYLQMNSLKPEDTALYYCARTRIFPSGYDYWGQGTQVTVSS VL: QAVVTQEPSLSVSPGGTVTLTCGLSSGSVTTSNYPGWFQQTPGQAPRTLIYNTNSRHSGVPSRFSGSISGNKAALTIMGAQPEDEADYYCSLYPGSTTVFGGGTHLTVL = 65.2

Now take the following binder into account.
Form field: reported protection from staurosporine, viability EMAX, MCF10A of chimeric llama-human IgG1 mAb 71A3 (antibody, V domains shown) VH: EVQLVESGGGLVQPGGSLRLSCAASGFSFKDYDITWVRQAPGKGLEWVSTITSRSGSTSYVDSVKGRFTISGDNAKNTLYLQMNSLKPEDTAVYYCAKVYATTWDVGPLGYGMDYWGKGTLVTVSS VL: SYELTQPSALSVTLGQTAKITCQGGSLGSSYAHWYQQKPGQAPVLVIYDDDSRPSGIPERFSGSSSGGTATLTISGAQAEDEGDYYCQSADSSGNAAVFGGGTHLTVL
71.7
